Origin of measurements: PubChem BioAssay (NCI)

assay_remarks: NCI Yeast Anticancer Drug Screen. Data for the cln2 rad14 strain (AID 165)
settings: S. cerevisiae cln2 rad14 strain, at 50.0 µM (retest, dose inferred, filed as 5.0)
The panel holds about 79,000 compounds, 15% with a hit somewhere; the sample as a whole holds those more often. Activity calls are given as the source filed them. Rule as the data show it: active = growth inhibition above about 70%; inactive = the rest.
Answer with one of the outcomes given here: TRUE for active, FALSE for inactive

molecule=O=c1[nH]n(CCc2ccccn2)c(=O)c(Cl)c1Cl class_assignment=FALSE
molecule=CCN(CC)CCCNc1nc(NCCCN(CC)CC)c2nc(-c3ccccc3)c(-c3ccccc3)nc2n1 class_assignment=FALSE
molecule=CCCCCCCCCCN1Cc2ccccc2C1 class_assignment=TRUE

Data request: Just curious, what result did O=C(O)C1C(C(=O)Nc2ccc3c(c2)Cc2ccccc2-3)C2(Cl)C(Cl)=C(Cl)C1(Cl)C2(Cl)Cl (stereo unspecified) get here?
Data returned: TRUE
